Listed here: items and their measured AML-5 bioassay IC50.
System under test: human c-fms, full length, on cells (human, UniProt P07333 20-972)
Sequence (P07333 20-972): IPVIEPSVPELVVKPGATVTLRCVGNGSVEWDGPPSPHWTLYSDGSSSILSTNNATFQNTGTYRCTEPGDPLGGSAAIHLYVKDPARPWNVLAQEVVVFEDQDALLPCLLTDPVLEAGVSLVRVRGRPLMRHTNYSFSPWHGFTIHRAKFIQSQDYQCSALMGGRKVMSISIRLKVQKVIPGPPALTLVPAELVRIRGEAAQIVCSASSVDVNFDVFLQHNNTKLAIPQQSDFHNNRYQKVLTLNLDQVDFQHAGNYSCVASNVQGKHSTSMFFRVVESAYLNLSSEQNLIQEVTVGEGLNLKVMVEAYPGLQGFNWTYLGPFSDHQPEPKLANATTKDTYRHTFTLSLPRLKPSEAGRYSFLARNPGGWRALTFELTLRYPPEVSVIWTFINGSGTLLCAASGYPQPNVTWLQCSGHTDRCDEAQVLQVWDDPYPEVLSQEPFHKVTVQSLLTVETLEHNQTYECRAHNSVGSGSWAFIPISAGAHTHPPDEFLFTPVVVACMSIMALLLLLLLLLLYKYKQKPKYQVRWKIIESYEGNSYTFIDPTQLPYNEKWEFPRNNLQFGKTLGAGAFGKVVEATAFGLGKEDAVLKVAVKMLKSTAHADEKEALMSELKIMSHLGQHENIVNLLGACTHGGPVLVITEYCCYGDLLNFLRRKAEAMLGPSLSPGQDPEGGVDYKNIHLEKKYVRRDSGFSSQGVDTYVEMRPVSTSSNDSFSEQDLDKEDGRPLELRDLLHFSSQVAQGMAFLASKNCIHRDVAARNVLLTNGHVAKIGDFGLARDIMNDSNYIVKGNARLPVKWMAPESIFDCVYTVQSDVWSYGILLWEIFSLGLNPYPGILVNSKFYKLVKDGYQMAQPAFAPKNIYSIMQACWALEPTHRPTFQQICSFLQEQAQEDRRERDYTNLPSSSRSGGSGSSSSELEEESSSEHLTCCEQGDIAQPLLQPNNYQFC
Assay: cell-based or functional assay
A number alone suffices; assume nM.

Here are 2 binders together with their reported answers.
>  <Binder>
anti-c-fms hybridoma antibody 1.134 (antibody, IgG1, V domains shown, Hybridoma IgG1 (cohort 1); also called 1.134.1) VH: QVQLVESGGGVVQPGRSLRLSCAASGFTFSSYGMHWVRQAPGKGLEWVAVIWYDGSNKYYADSVKGRFTISRDNSKNTLYLQMNSLRAEDTAVYYCASSSWSYYGMDVWGQGTTVTVSS VL: DIQMTQSPSSLSASVGDRVTITCQASQDINNYLNWYQQKPGKAPKLLIYDASNLEIGVPSRFSGSGSGTDFIFTISSLQPEDIATYYCQQYDNFPFTFGGGTKVEIK

>  <AML-5 bioassay IC50 (nM)>
0.007

$$$$
>  <Binder>
anti-c-fms hybridoma antibody 2.508 (antibody, IgG2, V domains shown, Hybridoma IgG2 (cohort 2); also called 2.508.1; 2.508.2) VH: QVQLVQSGAEVKKPGASVKVSCKVSGYTLTELSMHWVRQAPGKGLEWMGGFDPEDGETIYAQKFQGRVTMTEDTSTDTAYMELSSLRSEDTAVYYCATAGLEIRWFDPWGQGTLVTVSS VL: DIVMTQSPLSLPVTPGEPASISCRSSQSLLHSNGYNYLDWYLQKPGQSPQFLIYLGSIRASGVPDRFSGSGSGTDFALTISRVEAEDVGVYYCMQALQTPRTFGQGTKVEIK

>  <AML-5 bioassay IC50 (nM)>
0.02

$$$$

Pending binder:
AML-5 bioassay IC50 recorded for this binder, anti-c-fms hybridoma antibody 2.534 (antibody, IgG2, V domains shown, Hybridoma IgG2 (cohort 2); also called 2.534.1; 2.534.2) VH: QVQLQESGPGLVKPSQTLSLTCTVSGGSISSGGYYWSWIRQHPGKGLEWIGYISYSGDTYYNPSLKSRLTISVDTSKHQFSLRLSSVTSADTAVYYCASLDLYGDYFDYWGQGTLVTVSS VL: EIVLTQSPDFQSVTPKEKVTITCRASQYIGSSLHWYQQTPDQSPKLLINYVSQSFSGVPSRFSGSGSGTDFTLTINSLEAEDAATYYCHQSSSLPFTFGPGTKVDIK , is 0.02

Reference for the values: patent US20090155164A1
